Origin of values: paper PMC8904266

Tested on: Caco-2 colon cancer cells
Assay: In vitro antitumor MTT assay, Caco-2
Format: cell-based, human
Conditions: Homo sapiens, Caco-2, 24 h, read-out: IC50 Caco-2
metricName: pIC50
Schema: pIC50 number; meaning minus log10 of the concentration expressed in molar units.

>>> df
                                   molecule              subjectoftest  experimentalresult
0  O=C(CN1CCN(c2nc3ccccc3nc2Cl)CC1)NCc1ccccc1 [Compound 11]  Caco-2 colon cancer cells                4.90
1  CC(=O)c1ccc(NC(=O)CN2CCN(c3nc4ccccc4nc3Cl)CC2)cc1 [Compound 10f]  Caco-2 colon cancer cells                4.55
2  O=C(CN1CCN(c2nc3ccccc3nc2Cl)CC1)Nc1ccccc1 [Compound 10a]  Caco-2 colon cancer cells                4.85
3  Cc1ccc(NC(=O)CN2CCN(c3nc4ccccc4nc3Cl)CC2)cc1 [Compound 10e]  Caco-2 colon cancer cells                4.79
4  CC(=O)c1ccc(NC(=O)CN2CCN(c3nc4ccccc4[nH]c3=O)CC2)cc1 [Compound 13f]  Caco-2 colon cancer cells                5.05

Field: pIC50 (Caco-2 colon cancer cells). Entry: O=C(CN1CCN(c2nc3ccccc3[nH]c2=O)CC1)Nc1ccc([N+](=O)[O-])cc1 [Compound 13g] 4.71

Short answer please: pIC50, Caco-2 colon cancer cells, entry COc1ccc(NC(=O)CN2CCN(c3nc4ccccc4nc3Cl)CC2)cc1 [Compound 10b] 4.83

Lookup: pIC50 / Caco-2 colon cancer cells / Cc1ccc(NC(=O)CN2CCN(c3nc4ccccc4[nH]c3=O)CC2)cc1 [Compound 13e] 4.84
